Biological target: human IL-17A (hIL-17A) (Homo sapiens, UniProt Q16552)
Test: IL-17A enzyme-linked immunosorbent assay (competitive ELISA, receptor-ligand binding)
Method: The inhibition of receptor-ligand binding by human IL-17A (hIL-17A) inhibitors was detected by competitive ELISA. […] The 96-well plate was washed four times with PBST (0.05% Tween-20), and added with 89 μL of PBST and 1 μL of a compound to be measured (100×), in which a concentration the compound to be measured (100×) was 0.003 μM-30 μM. […] After addition of 20% HCl, an absorbance was measure by a microplate reader at 450 nm. […]
Listed compounds paired with reported pIC50
pIC50 (log units): -log10 of the concentration in mol/L.

Guide cases for pIC50, answers given:
Cc1nonc1C(=O)N[C@H](C(=O)Nc1ccc(-c2c(C)n[nH]c2C)cc1)C1c2cc(F)cc(F)c2OCC12CC2 (stereo partly drawn) = 6.54
Cc1nonc1C(=O)N[C@H](C(=O)Nc1ccc(-c2c(C)n[nH]c2C)cc1)C1c2cc(F)c(F)cc2OCC12CC2 (stereo partly drawn) = 7.40
Cc1n[nH]c(C)c1-c1ccc(NC(=O)[C@@H](NC(=O)c2nonc2C2CC2)C2c3cc(F)cc(F)c3OCC23CC3)cc1 (stereo partly drawn) = 6.39
Cc1nonc1C(=O)N[C@H](C(=O)Nc1ccc(-c2c(C)n[nH]c2C)cc1)C1c2ccc(F)c(F)c2OCC12CC2 (stereo partly drawn) = 6.95
Cc1n[nH]c(C)c1-c1ccc(NC(=O)[C@@H](NC(=O)c2nonc2C(C)C)C2c3c(F)ccc(F)c3OCC23CC3)cc1 (stereo partly drawn) = 5.69

Look up pIC50: Cc1n[nH]c(C)c1-c1ccc(NC(=O)[C@@H](NC(=O)c2ccnn2C)C2c3ccc(F)cc3CC23CC3)cn1 (stereo partly drawn)
7.14

Please report the recorded pIC50 for Cc1n[nH]c(C)c1-c1ccc(NC(=O)[C@@H](NC(=O)c2ccnn2C)C2c3c(F)cccc3CC23CC3)cc1 (stereo partly drawn) .
7.51

Reported pIC50, compound Cc1n[nH]c(C)c1-c1ncc(NC(=O)[C@@H](NC(=O)c2conc2C2CC2)C2c3ccc(F)cc3OCC23CC3)cc1F (stereo partly drawn) : ____
6.72

Which pIC50 value belongs to Cc1n[nH]c(C)c1-c1ncc(NC(=O)[C@@H](NC(=O)c2nonc2C2CC2)C2c3cc(F)c(F)cc3OCC23CC3)cc1F (stereo partly drawn) ?
6.73

====

Molecular target: UniProtKB Q16552
Sequence (Q16552 24-155): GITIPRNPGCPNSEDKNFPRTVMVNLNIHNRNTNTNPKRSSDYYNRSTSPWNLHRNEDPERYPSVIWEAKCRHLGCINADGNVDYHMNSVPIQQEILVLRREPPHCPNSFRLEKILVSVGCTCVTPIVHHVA
Test: IL-17A enzyme-linked immunosorbent assay (competitive ELISA, receptor-ligand binding)
Field: label. Allowed values: Condition met (IC50 < 100 nM) or Condition not met (IC50 >= 100 nM).

As a guide, the following entries are already answered.
Cc1n[nH]c(C)c1-c1ncc(NC(=O)[C@@H](NC(=O)c2conc2C2CC2)C2c3cc(F)c(F)cc3OCC23CC3)cc1F (some centres unmarked) = Condition not met
Cc1n[nH]c(C)c1-c1ncc(NC(=O)[C@@H](NC(=O)c2nonc2C(C)C)C2c3ccc(F)c(F)c3OCC23CC3)cc1F (some centres unmarked) = Condition not met
Cc1nonc1C(=O)N[C@H](C(=O)Nc1ccc(-c2c(C)n[nH]c2C)nc1)C1c2ccc(F)cc2OCC12CC2 (some centres unmarked) = Condition not met
Cc1n[nH]c(C)c1-c1ccc(NC(=O)[C@@H](NC(=O)c2nonc2C(C)C)C2c3cc(F)c(F)cc3OCC23CC3)cn1 (some centres unmarked) = Condition not met
Cc1nonc1C(=O)N[C@H](C(=O)Nc1ccc(-c2c(C)n[nH]c2C)nc1)C1c2ccc(F)cc2CC12CC2 (some centres unmarked) = Condition met
Cc1n[nH]c(C)c1-c1ccc(NC(=O)[C@@H](NC(=O)C2(F)CC2)C2c3cc(F)c(F)cc3OCC23CC3)cc1 (some centres unmarked) = Condition met

Item COCCc1nocc1C(=O)N[C@H](C(=O)Nc1ccc(-c2c(C)n[nH]c2C)cc1)C1c2cc(F)c(F)cc2OCC12CC2 (some centres unmarked) : IC50 beneath 100 nM, strictly?
Condition not met

Criterion: IC50 strictly below 100 nM. Is it met by Cc1n[nH]c(C)c1-c1ncc(NC(=O)[C@@H](NC(=O)c2nonc2C(C)C)C2c3cc(F)c(F)cc3OCC23CC3)cc1F (some centres unmarked) ?
Condition met

Hello, is IC50 of the following compound strictly smaller than 100 nM? Cc1n[nH]c(C)c1-c1ccc(NC(=O)[C@@H](NC(=O)c2nonc2C2CC2)C2c3cc(F)c(F)cc3OCC23CC3)cc1 (some centres unmarked)
Condition not met

Just wondering, is IC50 of CCc1nocc1C(=O)N[C@H](C(=O)Nc1ccc(-c2c(C)n[nH]c2C)nc1)C1c2ccc(F)cc2OCC12CC2 (some centres unmarked) below 100 nM?
Condition not met

In the record for Cc1n[nH]c(C)c1-c1ccc(NC(=O)[C@@H](NC(=O)c2nonc2C2CC2)C2c3ccc(F)cc3OCC23CC3)cn1 (some centres unmarked) , is IC50 less than 100 nM?
Condition met

Take the compound Cc1n[nH]c(C)c1-c1ccc(NC(=O)[C@@H](NC(=O)c2ccnn2C)C2c3ccc(F)cc3CC23CC3)cc1 (some centres unmarked) and say whether its IC50 is less than 100 nM.
Condition met

====

In this section we review reported IC50 values for a set of compounds.
target: human IL-17A (hIL-17A) (Homo sapiens); construct: purchased Sino Biological Inc. 12047-H07B; test: IL-17A enzyme-linked immunosorbent assay (competitive ELISA, receptor-ligand binding)
Express the reported value numerically, then name its unit.

Field: example entries. Status: answers known.
Cc1n[nH]c(C)c1-c1ccc(NC(=O)[C@@H](NC(=O)c2ccnn2C(C)C)C2c3ccc(F)cc3OCC23CC3)cn1 (stereo partly shown) = 164 nM
Cc1n[nH]c(C)c1-c1ccc(NC(=O)[C@@H](NC(=O)c2ccnn2C(C)C)C2c3c(F)ccc(F)c3OCC23CC3)cn1 (stereo partly shown) = 5000 nM
Cc1n[nH]c(C)c1-c1ncc(NC(=O)[C@@H](NC(=O)c2nonc2C(C)C)C2c3ccc(F)cc3OCC23CC3)cc1F (stereo partly shown) = 111 nM
Cc1n[nH]c(C)c1-c1ccc(NC(=O)[C@@H](NC(=O)c2nonc2C(C)C)C2c3cc(F)c(F)cc3OCC23CC3)cc1 (stereo partly shown) = 125 nM
Cc1n[nH]c(C)c1-c1ncc(NC(=O)[C@@H](NC(=O)c2ccnn2C(C)C)C2c3c(F)cc(F)cc3OCC23CC3)cc1F (stereo partly shown) = 193 nM
Cc1n[nH]c(C)c1-c1ccc(NC(=O)[C@@H](NC(=O)c2nocc2C(C)C)C2c3ccc(F)cc3OCC23CC3)cc1 (stereo partly shown) = 311 nM

Requested read-out: IC50. Entry: Cc1nonc1C(=O)N[C@H](C(=O)Nc1ccc(-c2c(C)n[nH]c2C)cc1)C1c2ccc(F)cc2CC12CC2 (stereo partly shown)
48 nM

====

Target: UniProtKB Q16552
Sequence (Q16552 24-155): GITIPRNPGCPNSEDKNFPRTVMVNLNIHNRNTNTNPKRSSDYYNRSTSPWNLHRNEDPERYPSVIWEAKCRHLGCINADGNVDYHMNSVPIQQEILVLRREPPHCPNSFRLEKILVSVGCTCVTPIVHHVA
Test: IL-17A enzyme-linked immunosorbent assay (competitive ELISA, receptor-ligand binding)
Group membership follows IC50 per the scheme lower (below 0.1 µM), middle (0.1 µM to below 0.2 µM), upper (0.2 µM or more)

Cc1n[nH]c(C)c1-c1ccc(NC(=O)[C@@H](NC(=O)c2nonc2C(C)C)C2c3ccc(F)cc3OCC23CC3)cc1 (stereo partly drawn) = middle

Each compound maps to one class by IC50. Which class for Cc1n[nH]c(C)c1-c1ccc(NC(=O)[C@@H](NC(=O)c2nonc2C(C)C)C2c3ccc(F)c(F)c3OCC23CC3)cn1 (stereo partly drawn) ?
middle

For this compound, which bin applies? Cc1n[nH]c(C)c1-c1ccc(NC(=O)[C@@H](NC(=O)c2ccnn2C(C)C)C2c3cc(F)c(F)cc3OCC23CC3)cn1 (stereo partly drawn)
middle

Determine which band this compound sits in: CCn1nccc1C(=O)N[C@H](C(=O)Nc1ccc(-c2c(C)n[nH]c2C)nc1)C1c2cc(F)ccc2OCC12CC2 (stereo partly drawn)
lower

Category of Cc1n[nH]c(C)c1-c1ncc(NC(=O)[C@@H](NC(=O)c2ccnn2C(C)C)C2c3ccc(F)c(F)c3OCC23CC3)cc1F (stereo partly drawn) , please.
middle

Could you tell me which band CCc1nocc1C(=O)N[C@H](C(=O)Nc1ccc(-c2c(C)n[nH]c2C)cc1)C1c2ccc(F)cc2OCC12CC2 (stereo partly drawn) belongs to?
middle

Which category does the recorded IC50 put Cc1nonc1C(=O)N[C@H](C(=O)Nc1cnc(-c2c(C)n[nH]c2C)c(F)c1)C1c2ccc(F)cc2CC12CC2 (stereo partly drawn) in?
middle

Form: Item = Cc1n[nH]c(C)c1-c1ccc(NC(=O)[C@@H](NC(=O)c2nonc2C(C)C)C2c3c(F)cc(F)cc3OCC23CC3)cn1 (stereo partly drawn) ; Class = ?
upper

Place this compound in its band: Cc1n[nH]c(C)c1-c1ccc(NC(=O)[C@@H](NC(=O)c2ccnn2C)C2c3cc(F)ccc3OCC23CC3)cn1 (stereo partly drawn)
lower

Class for Cc1nonc1C(=O)N[C@H](C(=O)Nc1ccc(-c2c(C)n[nH]c2C)cc1)C1c2c(F)ccc(F)c2OCC12CC2 (stereo partly drawn) ?
upper

Which of the defined bands does the recorded IC50 of Cc1nonc1C(=O)N[C@H](C(=O)Nc1ccc(-c2c(C)n[nH]c2C)cc1)C1c2ccc(F)cc2OCC12CC2 (stereo partly drawn) sit within?
lower

# bin lookup: classify Cc1n[nH]c(C)c1-c1ccc(NC(=O)[C@@H](NC(=O)c2nonc2C2CC2)C2c3c(F)cc(F)cc3OCC23CC3)cc1 (stereo partly drawn) by its IC50
upper
